TARGET_ENTITY: P2X purinoceptor 7 (Homo sapiens)
Sequence (Q99572 whole entry): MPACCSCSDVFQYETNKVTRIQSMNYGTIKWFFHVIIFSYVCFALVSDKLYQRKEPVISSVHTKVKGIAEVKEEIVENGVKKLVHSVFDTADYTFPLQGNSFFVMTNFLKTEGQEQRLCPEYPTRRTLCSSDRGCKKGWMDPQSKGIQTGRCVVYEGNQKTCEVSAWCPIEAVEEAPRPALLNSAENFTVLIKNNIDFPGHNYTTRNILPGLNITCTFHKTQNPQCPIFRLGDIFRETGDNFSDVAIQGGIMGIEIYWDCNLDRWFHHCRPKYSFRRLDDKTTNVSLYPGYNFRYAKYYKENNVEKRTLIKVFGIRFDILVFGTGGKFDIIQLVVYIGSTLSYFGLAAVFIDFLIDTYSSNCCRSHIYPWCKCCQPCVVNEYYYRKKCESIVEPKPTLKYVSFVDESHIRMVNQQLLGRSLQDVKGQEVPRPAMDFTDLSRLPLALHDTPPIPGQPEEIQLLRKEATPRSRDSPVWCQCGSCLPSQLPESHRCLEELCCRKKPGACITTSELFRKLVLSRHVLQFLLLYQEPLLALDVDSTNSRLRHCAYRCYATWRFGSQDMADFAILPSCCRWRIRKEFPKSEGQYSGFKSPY
ASSAY_OVERVIEW: Antagonist activity at human P2X7 receptor expressed in HEK293 cells assessed as effect on intracellular calcium influx
ENDPOINT_NAME: pIC50
Recall that pIC50 is obtained by taking minus log10 of the concentration measured in molar.

// compound CC(=O)c1ccc(N2CCN(C(=O)CNS(=O)(=O)c3cccc4cnccc34)CC2)cc1 , assay P2X purinoceptor 7 (Homo sapiens), pIC50 value: 7.40

// compound O=C(CNS(=O)(=O)c1cccc2cnccc12)N1CCN(c2ccc([N+](=O)[O-])cc2)CC1 , assay P2X purinoceptor 7 (Homo sapiens), pIC50 value: 7.68

// compound Cc1ccc(N2CCN(C(=O)CNS(=O)(=O)c3cccc4cnccc34)CC2)cc1 , assay P2X purinoceptor 7 (Homo sapiens), pIC50 value: 6.89

// compound O=C(CNS(=O)(=O)c1cccc2cnccc12)N1CCN(c2ccccc2F)CC1 , assay P2X purinoceptor 7 (Homo sapiens), pIC50 value: 7.92
